Experiment: Food-effect crossover bioavailability study, 600 mg fed vs fasted, healthy adult subjects (Example 2)
Assay type: in vivo, human
Condition set: both sexes, human, plasma, po, 600 mg, 600 mg PO, fasted, mean, balanced data; read-out: AUC(l)
Measurement kind: AUC

INSERT INTO results (compound, measurement_kind, experimental_value) VALUES
  ('CC(C)(C)NC(=O)N[C@H](C(=O)N1C[C@H]2[C@@H]([C@H]1C(=O)NC(CC1CCC1)C(=O)C(N)=O)C2(C)C)C(C)(C)C (mixture of isomers)', 'AUC', '1750 ng·h/mL');

====

Experiment: Food-effect crossover bioavailability study, 600 mg fed vs fasted, healthy adult subjects (Example 2)
Format: in vivo, human
Condition set: both sexes, human, plasma, po, 600 mg, 600 mg PO, fasted, mean, balanced data; read-out: Cmax
Experimental: This was a randomized, open-label, single-dose, two-treatment (fed or fasted), two-period, two-sequence crossover study of the effect of food on the bioavailability of compound of Formula Ia in 23 healthy adult male and female subjects. The primary pharmacokinetic parameters were AUC(l) and Cmax for compound of Formula Ia. […] Plasma concentrations of compound of Formula Ia were determined using a validated liquid chromatography tandem mass spectrometry (LC-MS/MS) method. […]
Measurement kind: Cmax (ng/mL)

INSERT INTO results (molecule, measurement_kind, experimental_value) VALUES
  ('CC(C)(C)NC(=O)N[C@H](C(=O)N1C[C@H]2[C@@H]([C@H]1C(=O)NC(CC1CCC1)C(=O)C(N)=O)C2(C)C)C(C)(C)C (mixture of isomers) [Formula Ia]', 'Cmax', 448);
